system: J774 macrophages; test: Toxicity against J774 macrophages (IC50); assay type: cell-based; conditions: Mus musculus, Tables I-III, V
Reported Metric: IC50 (nM)

compound="Cl.Cl.c1cc(C2=NCCN2)ccc1OCCCOc1ccc(-c2cc3ccc(C4=NCCN4)cc3o2)cc1 [Compound 70, dihydrochloride]" recorded_value=2400
compound="Cl.Cl.N=C(N)c1ccc(OCCCCOc2cccc(-c3cc4ccc(C(=N)N)cc4o3)c2)cc1 [Compound 59, dihydrochloride]" recorded_value=11000
compound="Cl.Cl.N=C(N)c1ccc(OCCCOc2ccc(-c3cc4cc(C(=N)N)ccc4o3)cc2)cc1 [Compound 44, dihydrochloride]" recorded_value=2700
compound="CC(C)NC(=N)c1ccc(OCCCCCOc2ccc(-c3cc4ccc(C(=N)NC(C)C)cc4o3)cc2)cc1.Cl.Cl [Compound 75, dihydrochloride]" recorded_value=2700
